Recorded pIC50, one value per entry.
test system: HCT-116; assay: cells; conditions: Homo sapiens, HCT-116, 72 h
Description: Cytotoxicity against human HCT-116 cells assessed as reduction in cell viability incubated for 72 hrs by MTT assay
pIC50: −log10 of the molar value.
property_label: pIC50

In [3]: df
Out[3]:
                         structure_notation  property_label  reported
0  O=C(CCSc1nc2ccccc2o1)Nc1ccc(S(=O)(=O)NC(=O)NC2CCCCC2)cc1           pIC50      5.15
1  Cc1ccc2oc(SCCC(=O)Nc3nnc(-c4ccccc4)s3)nc2c1           pIC50      5.24
2  CCNC(=S)NS(=O)(=O)c1ccc(NC(=O)CCSc2nc3cc(C)ccc3o2)cc1           pIC50      4.90
